Recorded values, source ChEMBL document CHEMBL4814056.

- Experimental system: NACHT, LRR and PYD domains-containing protein 3 (Mus musculus, UniProt Q8R4B8)
- Sequence (Q8R4B8 whole entry, the tested form may be a part): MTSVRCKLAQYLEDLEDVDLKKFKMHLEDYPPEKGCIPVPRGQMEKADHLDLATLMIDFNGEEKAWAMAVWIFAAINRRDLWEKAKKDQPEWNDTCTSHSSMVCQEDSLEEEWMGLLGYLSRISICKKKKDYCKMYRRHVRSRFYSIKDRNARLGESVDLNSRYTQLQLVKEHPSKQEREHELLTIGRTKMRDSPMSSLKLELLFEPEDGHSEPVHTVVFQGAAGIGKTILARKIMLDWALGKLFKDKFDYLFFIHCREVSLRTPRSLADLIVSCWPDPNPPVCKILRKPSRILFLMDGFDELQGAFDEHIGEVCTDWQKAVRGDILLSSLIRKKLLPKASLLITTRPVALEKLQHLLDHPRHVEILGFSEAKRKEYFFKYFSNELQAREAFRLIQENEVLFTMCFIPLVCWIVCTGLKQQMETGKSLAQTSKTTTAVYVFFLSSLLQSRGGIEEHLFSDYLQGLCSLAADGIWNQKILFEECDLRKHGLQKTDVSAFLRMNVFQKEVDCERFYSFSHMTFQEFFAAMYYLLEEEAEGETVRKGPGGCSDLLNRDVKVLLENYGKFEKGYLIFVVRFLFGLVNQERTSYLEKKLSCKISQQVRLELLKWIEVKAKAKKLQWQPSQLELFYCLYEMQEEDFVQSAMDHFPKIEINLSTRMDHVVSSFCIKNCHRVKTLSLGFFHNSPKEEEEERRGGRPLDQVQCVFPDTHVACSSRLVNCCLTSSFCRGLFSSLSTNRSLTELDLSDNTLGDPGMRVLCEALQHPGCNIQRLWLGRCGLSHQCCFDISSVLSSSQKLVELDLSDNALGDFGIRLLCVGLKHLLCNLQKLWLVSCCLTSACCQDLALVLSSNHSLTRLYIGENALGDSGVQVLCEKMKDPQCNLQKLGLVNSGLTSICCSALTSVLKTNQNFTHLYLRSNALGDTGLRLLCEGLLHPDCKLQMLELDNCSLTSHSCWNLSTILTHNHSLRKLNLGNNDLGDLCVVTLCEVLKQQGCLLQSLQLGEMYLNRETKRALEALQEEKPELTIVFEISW
- Procedure summary: Inhibition of NLRP3 in mouse J774A.1 cells infected with FLA-ST assessed as inhibition of LPS- induced IL-1beta production by ELISA
- Assay type: cell-based, J774.A1
Test readout: IC50 (µM)
Write the number in µM without appending the unit.

Here are 5 compounds together with their reported answers.
>>> print(df.to_string())
                             smiles_repr                       experimental_system  obs_value
0             CCN(CC)C(=S)SSC(=S)N(CC)CC  NACHT, LRR and PYD domains-containing protein 3 (Mus musculus, UniProt Q8R4B8)          3
1  CSc1ccc(C(=O)/C=C/c2ccc3c(c2)CCO3)cc1  NACHT, LRR and PYD domains-containing protein 3 (Mus musculus, UniProt Q8R4B8)       24.2
2   Cc1cc(/C=C/C(=O)c2ccc(F)cc2)cc(C)c1O  NACHT, LRR and PYD domains-containing protein 3 (Mus musculus, UniProt Q8R4B8)       12.3
3                        CS(=O)(=O)CCC#N  NACHT, LRR and PYD domains-containing protein 3 (Mus musculus, UniProt Q8R4B8)        0.1
4  CSc1ccc(C(=O)/C=C/c2cc(C)c(O)cc2C)cc1  NACHT, LRR and PYD domains-containing protein 3 (Mus musculus, UniProt Q8R4B8)        5.3

Now take the following compound into account.
Which measured IC50 value corresponds to Cc1cc(/C=C/C(=O)c2ccc(-c3ccccc3)cc2)cc(C)c1O ?
29.4
